Cited source: patent US20090099195A1

# Assay System: hP2X3 (human Purinergic P2X receptors subtype 3), clone B (Homo sapiens)
# Procedure Details: hP2X3 FLIPR calcium (Fluo-4) antagonist assay, clone B
# Measurement Parameters: Human P2X3 FLIPR Clone B IC50 (nM), RLE cells expressing hP2X3 clone B (NM_002559); agonist 500 nM α,β-methylene-ATP
Measured Property: IC50

Molecule | Measured Property | Obs Value
CC(C)CN1Cc2c(NC(c3ccccc3)c3ccccc3)nc(N3CCOCC3)nc2C1=O | IC50 | 3800 nM
CC(=O)N1CCN(c2nc3c(c(N(C)C(C)c4ccc5ncccc5c4)n2)CN(C(C)C)C3=O)CC1 (single isomer, unassigned) [Example 260] | IC50 | 2300 nM
CC(=O)N1CCN(c2nc3c(c(N4CCCC4c4cc(C)cc(C)c4)n2)CN(C(C)C)C3=O)CC1 (stereo not shown) | IC50 | 340 nM
CCC(Nc1nc(N2CCN(C(C)=O)CC2)nc2c1CN(C(C)C)C2=O)c1ccc(C)cc1 (stereo not shown) | IC50 | 1800 nM
CC(=O)N1CCN(c2nc3c(c(N(C)Cc4cnc5ccccc5c4)n2)CN(C(C)C)C3=O)CC1 | IC50 | 47 nM
CCN1Cc2c(NC(C)(C)Cc3ccc(F)cc3)nc(N3CCN(C(C)=O)CC3)nc2C1=O | IC50 | 1100 nM
CC(C)N1Cc2c(nc(N3CCNC(=O)C3)nc2N2CCCC2Cc2ccc(Cl)cc2)C1=O (stereo not shown) | IC50 | 2000 nM

====

# Assay System: hP2X3 (human Purinergic P2X receptors subtype 3), clone B (Homo sapiens, UniProt P56373)
# Sequence (P56373 whole entry): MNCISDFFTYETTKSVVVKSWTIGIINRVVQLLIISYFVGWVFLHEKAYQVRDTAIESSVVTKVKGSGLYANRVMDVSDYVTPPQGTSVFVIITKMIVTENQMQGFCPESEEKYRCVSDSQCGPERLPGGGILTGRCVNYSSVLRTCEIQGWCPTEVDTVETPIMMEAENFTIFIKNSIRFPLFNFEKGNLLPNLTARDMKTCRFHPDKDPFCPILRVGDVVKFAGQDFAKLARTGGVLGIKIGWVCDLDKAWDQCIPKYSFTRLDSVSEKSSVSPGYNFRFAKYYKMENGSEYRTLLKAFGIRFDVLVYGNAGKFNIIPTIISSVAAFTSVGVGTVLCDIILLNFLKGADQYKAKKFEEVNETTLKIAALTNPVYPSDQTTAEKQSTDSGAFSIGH
# Procedure Details: hP2X3 FLIPR calcium (Fluo-4) antagonist assay, clone B
# Measurement Parameters: Human P2X3 FLIPR Clone B IC50 (nM), RLE cells expressing hP2X3 clone B (NM_002559); agonist 500 nM α,β-methylene-ATP
Param label: returns fulfilled when IC50 < 2000 nM, returns not fulfilled otherwise, including exact equality.

Compound | Label
CC(=O)N1CCN(c2nc(NCc3cc(-c4ccccc4)n(C)n3)c3c(n2)C(=O)N(C(C)C)C3)CC1 [Example 153] | fulfilled
CC(=O)N1CCN(c2nc3c(c(N(C)Cc4ccc5ccccc5n4)n2)CN(C(C)C)C3=O)CC1 [Example 249] | not fulfilled
CC(=O)N1CCN(c2nc3c(c(N4CCC[C@H]4Cc4ccccc4)n2)CN(C(C)C)C3=O)CC1 [Example 117] | not fulfilled
CC(=O)N1CCN(c2nc(NC(C)c3cnn(-c4ccccc4)c3)c3c(n2)C(=O)N(C(C)C)C3)CC1 (stereo not shown) [Example 150] | fulfilled
CC(C)N1Cc2c(NC(C)(C)Cc3ccc(Cl)cc3)nc(N3CCN(C(=O)C4CC4)CC3)nc2C1=O [Example 126] | not fulfilled
CC(C)N1Cc2c(Nc3ccc(Cc4ccccc4)cc3)nc(N3CCOCC3)nc2C1=O [Example 37] | not fulfilled
CC(=O)N1CCN(c2nc(N[C@H](C)c3ccc(OC4CCC4)cc3)c3c(n2)C(=O)N(C(C)C)C3)CC1 [Example 191] | fulfilled

====

# Assay System: hP2X3 (human Purinergic P2X receptors subtype 3), clone B (Homo sapiens)
# Procedure Details: hP2X3 FLIPR calcium (Fluo-4) antagonist assay, clone B
# Measurement Parameters: Human P2X3 FLIPR Clone B IC50 (nM), RLE cells expressing hP2X3 clone B (NM_002559); agonist 500 nM α,β-methylene-ATP

Compound | IC50
CC(=O)N1CCN(c2nc3c(c(N4CCC4Cc4ccccc4)n2)CN(C(C)C)C3=O)CC1 (stereo not shown) | 3200 nM
CCN1CCN(c2nc(NC(c3ccccc3)c3ccccc3)c3c(n2)C(=O)N(C(C)C)C3)CC1 | 400 nM
CC(C)N1Cc2c(NCc3cnc4ccccc4c3)nc(NC3CN4CCC3CC4)nc2C1=O (stereo not shown) | 2300 nM
CC(=O)N1CCN(c2nc(NC3CCCc4ccccc43)c3c(n2)C(=O)N(C(C)C)C3)CC1 (stereo not shown) | 4800 nM

====

IC50 reference
# Assay System: hP2X3 (human Purinergic P2X receptors subtype 3), clone A (Homo sapiens)
# Procedure Details: hP2X3 FLIPR calcium (Fluo-4) antagonist assay, clone A
# Measurement Parameters: Human P2X3 FLIPR Clone A Mean IC50 (nM), RLE cells expressing hP2X3 clone A (AB016608); agonist 500 nM α,β-methylene-ATP
Measured Property: IC50 (nM)

Compound | Obs Value
CC(C)N1Cc2c(NC(C)(C)Cc3ccc(F)cc3)nc(N3CCn4ccnc4C3)nc2C1=O [Example 340] | 2710
CC(=O)N1CCN(c2nc(NCc3ccc4c(c3)CC(C)O4)c3c(n2)C(=O)N(C(C)C)C3)CC1 (stereo not shown) [Example 323] | 410
CC(=O)N1CCN(c2nc(N[C@H](C)c3ccc(C(F)(F)F)c(F)c3)c3c(n2)C(=O)N(C(C)C)C3)CC1 [Example 182] | 271
CC[C@H](C)N1Cc2c(NCc3cnc4ccccc4c3)nc(N3CCN(C(C)=O)CC3)nc2C1=O [Example 316] | 35.5
CCOc1ccc([C@@H](C)Nc2nc(N3CCN(C(C)=O)CC3)nc3c2CN([C@@H](C)CC)C3=O)cc1F [Example 320] | 69.1
CC(=O)N1CCN(c2nc(N[C@H](C)c3ccc(C#N)cc3)c3c(n2)C(=O)N(C(C)C)C3)CC1 [Example 351] | 1940
COc1cc(OC(C)C)ccc1[C@@H](C)Nc1nc(N2CCN(C(C)=O)CC2)nc2c1CN(C(C)C)C2=O [Example 203] | 65.8

====

# Assay System: hP2X3 (human Purinergic P2X receptors subtype 3), clone A (Homo sapiens)
# Procedure Details: hP2X3 FLIPR calcium (Fluo-4) antagonist assay, clone A
# Measurement Parameters: Human P2X3 FLIPR Clone A Mean IC50 (nM), RLE cells expressing hP2X3 clone A (AB016608); agonist 500 nM α,β-methylene-ATP
Please map values of IC50 to classes as shown: band 1 (below 100 nM), band 2 (100 nM to below 800 nM), band 3 (800 nM or more)

Compound | Label
CC(=O)N1CCN(c2nc(NCc3nc4ccccc4s3)c3c(n2)C(=O)N(C(C)C)C3)CC1 [Example 199] | band 3
CCOc1ncc([C@@H](C)Nc2nc(N3CCN(C(C)=O)CC3)nc3c2CN(C(C)C)C3=O)cc1Cl [Example 194] | band 2
CCOc1ccc([C@@H](CO)Nc2nc(N3CCN(C(C)=O)CC3)nc3c2CN(C(C)C)C3=O)cc1 [Example 189] | band 1
CC(=O)N1CCN(c2nc3c(c(N(C)Cc4cc5cc(C)ccc5cn4)n2)CN(C(C)C)C3=O)CC1 [Example 342] | band 3
CC(=O)N1CCN(c2nc3c(c(N(C)C(C)c4ccc5ncccc5c4)n2)CN(C(C)C)C3=O)CC1 (single isomer, unassigned) [Example 261] | band 1
CCOc1cc(OC)ccc1CN(C)c1nc(N2CCN(C(C)=O)CC2)nc2c1CN(C(C)C)C2=O [Example 336] | band 3
CC(=O)c1ccc(CC2CCCN2c2nc(N3CCN(C(C)=O)CC3)nc3c2CN(C(C)C)C3=O)cc1 (stereo not shown) [Example 294] | band 3
CC(=O)N1CCN(c2nc(N[C@H](C)c3ccc(F)c(C(F)(F)F)c3)c3c(n2)C(=O)N(C(C)C)C3)CC1 [Example 188] | band 2
CCOc1ccc(CN(C)c2nc(N3CCN(C(C)=O)CC3)nc3c2CN(C(C)C)C3=O)c(OC)c1 [Example 334] | band 3
CC(=O)N1CCN(c2nc(NCc3ccc4c(ccn4C)c3)c3c(n2)C(=O)N(C(C)C)C3)CC1 [Example 354] | band 2
COc1cc(OC(C)C)ccc1CNc1nc(N2CCN(C(C)=O)CC2)nc2c1CN(C(C)C)C2=O [Example 337] | band 1
CC(=O)N1CCN(c2nc(NCc3cc4ccccc4c(C)n3)c3c(n2)C(=O)N(C(C)C)C3)CC1 [Example 259] | band 1
CC(=O)N1CCN(c2nc(NC(C)c3nc4ccccc4s3)c3c(n2)C(=O)N(C(C)C)C3)CC1 (stereo not shown) [Example 236] | band 2
CCCOc1ccc([C@@H](C)Nc2nc(N3CCN(C(C)=O)CC3)nc3c2CN(C(C)C)C3=O)cc1F [Example 193] | band 2
CCOc1ccc([C@@H](C)Nc2nc(N3CCN(C(C)=O)CC3)nc3c2CN(C(C)C)C3=O)c(OC)c1 [Example 202] | band 1
CC(=O)N1CCN(c2nc3c(c(N(C)Cc4cc5ccc(Cl)cc5cn4)n2)CN(C(C)C)C3=O)CC1 [Example 341] | band 1
CCOc1ccc([C@@H](C)Nc2nc(N3CCN(CC(F)(F)F)C(=O)C3)nc3c2CN(C(C)C)C3=O)cc1 [Example 363] | band 2
CCOc1ccc([C@@H](C)Nc2nc(N3CCN(C(C)=O)CC3)nc3c2CN(C(C)C)C3=O)c(OCC)c1 [Example 357] | band 2
CC(=O)N1CCN(c2nc3c(c(N(C)Cc4cc5ccccc5c(C)n4)n2)CN(C(C)C)C3=O)CC1 [Example 263] | band 1
CC(=O)N1CCN(c2nc(NCc3ccc4ccn(C)c4c3)c3c(n2)C(=O)N(C(C)C)C3)CC1 [Example 356] | band 3
CC[C@H](C)N1Cc2c(nc(N3CCN(C(C)=O)CC3)nc2N(C)Cc2cnc3ccccc3c2)C1=O [Example 319] | band 1
CC(=O)N1CCN(c2nc3c(c(N(C)Cc4cc5cc(F)ccc5cn4)n2)CN(C(C)C)C3=O)CC1 [Example 349] | band 3
CCOc1ccc([C@H](CO)Nc2nc(N3CCN(C(C)=O)CC3)nc3c2CN(C(C)C)C3=O)cc1 [Example 180] | band 3
CC(=O)N1CCN(c2nc3c(c(N4CCCC4c4ccc(C)c(C)c4)n2)CN(C(C)C)C3=O)CC1 (stereo not shown) [Example 298] | band 2
CCN(c1nc(N2CCN(C(C)=O)CC2)nc2c1CN(C(C)C)C2=O)C(C)c1ccc2ncccc2c1 (single isomer, unassigned) [Example 258] | band 2
CC(=O)N1CCN(c2nc3c(c(N(C)Cc4cnn(-c5ccc(F)cc5)c4)n2)CN(C(C)C)C3=O)CC1 [Example 339] | band 3
CC(=O)N1CCN(c2nc3c(c(N(C)Cc4ccc5c(c4)OC(F)(F)O5)n2)CN(C(C)C)C3=O)CC1 [Example 360] | band 3
CC(=O)N1CCN(c2nc3c(c(N(C)Cc4cc5ccc(F)cc5cn4)n2)CN(C(C)C)C3=O)CC1 [Example 350] | band 1
